Biological target: T1, hIL-18Rα ECD-Fc fusion protein (human, UniProt Q13478 22-329)
T1 construct: extracellular domain; captured on Protein A sensor
T1 sequence (looked up): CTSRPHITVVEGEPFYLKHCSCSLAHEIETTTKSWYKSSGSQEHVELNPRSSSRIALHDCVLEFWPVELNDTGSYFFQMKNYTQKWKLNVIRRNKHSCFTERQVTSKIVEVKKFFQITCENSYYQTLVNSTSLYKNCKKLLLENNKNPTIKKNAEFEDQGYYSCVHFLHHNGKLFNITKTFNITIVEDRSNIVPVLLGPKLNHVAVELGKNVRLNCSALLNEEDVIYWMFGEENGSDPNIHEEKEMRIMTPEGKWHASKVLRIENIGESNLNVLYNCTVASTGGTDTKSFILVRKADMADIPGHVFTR
Experiment: BLI (Octet RED96), hIL-18Rα ECD-Fc on Protein A sensor; further: test concentration or dose not given here
Metric: Response (nm)
Your answer should be a plain number; it is taken to be in nm.

For reference, reported Response (nm) for IL-18 variant polypeptide M34 (ligand) YFPKLRSKLSVIRNLNDQVLFIDQGNRPLFEDMTDSDCRDNAPRTIFIISMYKHSRNRGMAVTISVKCEKISTLSCENKIISFKEMNPPDVIKDTKSDIIFFQESVPGHDNKMQFESSSYEGYFLACEKERDLFKLILKKEDELGDRSIMFTVQNED stands at 0.084

For this binder ( IL-18 variant polypeptide MM5 (ligand, soluble, E. coli-made) YFGKLGSKLSVIRNLNDQVLFIDQGNRPLFEDMTDSDCRDNAPRTIFIISMYKLSTERGMAVTISVKCEKISTLSCENKIISFKEMNPPDGIKDTKSDIIFFQSSVPGHDNKMQFESSSYEGYFLACEKERDLFKLILKKEDELGDRSIMFTVQNED ), measured Response (nm) is 0.0326

Lab book: Response (nm) of IL-18 variant polypeptide M23 (ligand) YFPKLRSKLSVIRNLNDQVLFIDQGNRPLFEDMTDSDCRDNAPRTIFIISMYKYSTRRGMAVTISVKCEKISTLSCENKIISFKEMNPPDNIKDTKSDIIFFQRSVPGHDNKMQFESSSYEGYFLACEKERDLFKLILKKEDELGDRSIMFTVQNED noted as 0.0522

// Response (nm) value for IL-18 variant polypeptide M20 (ligand) YFPKLRSKLSVIRNLNDQVLFIDQGNRPLFEDMTDSDCRDNAPRTIFIISMYKSSRSRGMAVTISVKCEKISTLSCENKIISFKEMNPPDGIKDTKSDIIFFQSSVPGHDNKMQFESSSYEGYFLACEKERDLFKLILKKEDELGDRSIMFTVQNED : 0.136

Lookup result for IL-18 variant polypeptide M3 (ligand) YFPKLKSKLSVIRNLNDQVLFIDQGNRPLFEDMTDSDCRDNAPRTIFIISMYKWSHVRGMAVTISVKCEKISTLSCENKIISFKEMNPPDAIKDTKSDIIFFQYSVPGHDNKMQFESSSYEGYFLACEKERDLFKLILKKEDELGDRSIMFTVQNED ; measured Response (nm): 0.057

Response (nm) reported for this binder IL-18 variant polypeptide M27 (ligand) YFPKLRSKLSVIRNLNDQVLFIDQGNRPLFEDMTDSDCRDNAPRTIFIISMYKHSYTRGMAVTISVKCEKISTLSCENKIISFKEMNPPDVIKDTKSDIIFFQYSVPGHDNKMQFESSSYEGYFLACEKERDLFKLILKKEDELGDRSIMFTVQNED : 0.0836

binder IL-18 variant polypeptide M2 (ligand) YFSKLKSKLSVIRNLNDQVLFIDQGNRPLFEDMTDSDCRDNAPRTIFIISMYKWSPDRGMAVTISVKCEKISTLSCENKIISFKEMNPPDGIKDTKSDIIFFQTSVPGHDNKMQFESSSYEGYFLACEKERDLFKLILKKEDELGDRSIMFTVQNED , Response (nm) observed: 0.0184

Per the record, IL-18 variant polypeptide M21 (ligand) YFPKLRSKLSVIRNLNDQVLFIDQGNRPLFEDMTDSDCRDNAPRTIFIISMYKSSSTRGMAVTISVKCEKISTLSCENKIISFKEMNPPDGIKDTKSDIIFFQSSVPGHDNKMQFESSSYEGYFLACEKERDLFKLILKKEDELGDRSIMFTVQNED has Response (nm) of 0.0791

# binder IL-18 variant polypeptide M32 (ligand) YFPKLGSKLSVIRNLNDQVLFIDQGNRPLFEDMTDSDCRDNAPRTIFIISMYKSSSRRGMAVTISVKCEKISTLSCENKIISFKEMNPPDNIKDTKSDIIFFQRSVPGHDNKMQFESSSYEGYFLACEKERDLFKLILKKEDELGDRSIMFTVQNED ; its Response (nm) = 0.0381

Reported Response (nm) for IL-18 variant polypeptide M16 (ligand) YFPKLRSKLSVIRNLNDQVLFIDQGNRPLFEDMTDSDCRDNAPRTIFIISMYKSSRNRGMAVTISVKCEKISTLSCENKIISFKEMNPPDGIKDTKSDIIFFQSSVPGHDNKMQFESSSYEGYFLACEKERDLFKLILKKEDELGDRSIMFTVQNED was 0.111

Please fill in: Response (nm) reported for IL-18 variant polypeptide M24 (ligand) YFPKLRSKLSVIRNLNDQVLFIDQGNRPLFEDMTDSDCRDNAPRTIFIISMYKYSTSRGMAVTISVKCEKISTLSCENKIISFKEMNPPDNIKDTKSDIIFFQRSVPGHDNKMQFESSSYEGYFLACEKERDLFKLILKKEDELGDRSIMFTVQNED = 0.0434

Entry under test: IL-18 variant polypeptide M29 (ligand) YFPKLMSKLSVIRNLNDQVLFIDQGNRPLFEDMTDSDCRDNAPRTIFIISMYKFSDRRGMAVTISVKCEKISTLSCENKIISFKEMNPPDPIKDTKSDIIFFQRSVPGHDNKMQFESSSYEGYFLACEKERDLFKLILKKEDELGDRSIMFTVQNED . Its Response (nm) was 0.0323

Sample IL-18 variant polypeptide WM6 (ligand, soluble, E. coli-made) YFDKLKSKLSVIRNLNDQVLFIDQGNRPLFEDMTDSDCRDNAPRTIFIISMYKDSQPRGMAVTISVKCEKISTLSCENKIISFKEMNPPDSIKDTKSDIIFFQRSVPGHDNKMQFESSSYEGYFLACEKERDLFKLILKKEDELGDRSIMFTVQNED ; Response (nm) observed: 0.304
